test: NCI Yeast Anticancer Drug Screen. Data for the mlh1 rad18 strain (AID 175); settings: S. cerevisiae mlh1 rad18 strain growth inhibition; at 50.0 µM (retest, dose inferred, filed as 5.0); stronger effect = higher value
Compounds without any hit were thinned out: in the full panel of roughly 79,000, 15% have a hit.
Parameter threshold = 80%. Response is true when growth inhibition meets or exceeds it, else false.

Observe how each entry below is paired with its result.
>>> class_assignment("CC1(C)CC(=O)C(C=NC(=S)c2ccccc2)=C(O)C1")
"false"
>>> class_assignment("CS(=O)(=O)OCCN(CCOS(C)(=O)=O)c1ccc(C=Nc2cc(Cl)c(O)c(Cl)c2)c(Cl)c1")
"false"
>>> class_assignment("CC(=O)Nc1ccc(S(=O)(=O)N/N=C/c2cc(I)cc([N+](=O)[O-])c2O)cc1")
"false"
>>> class_assignment("Cc1cc(N=NC(N)=S)c2ccccc2c1O")
"false"
>>> class_assignment("Nc1ccccc1CC(c1c[nH]c2ccccc12)c1c[nH]c2ccccc12")
"false"

Does "Cc1cc(NCCCCCCCCCC[n+]2c(C)cc(N)c3ccccc32)c2ccccc2n1" have a reported growth inhibition of at least 80%?
true

// query: "Cc1cnc(Sc2c([N+](=O)[O-])ncn2C)nc1"
false

And for "COc1ccc(C(=O)O)c(-c2c(C(=O)O)ccc(OC)c2OC(C)=O)c1" ?
false

Try the compound CC(=O)C1CCC2C3CC(F)C4(O)CC(O)CCC4(C)C3CCC12C (stereo not drawn)
true

Can you handle "CC(=O)OC(OC(C)=O)c1ccc([N+](=O)[O-])s1" next?
true

Moving on to "COc1cc(OC(C)C)cc2c1C(=O)C(C(O)(O)C(F)(F)F)=CC2=O"
false

Do the same for CCCCCCC1CC(=O)C1(Cl)Cl (stereo not drawn) please
true

And what about the compound "Clc1ccc(CN2COc3c(ccc4ccccc34)C2)cc1" ?
true

Item: "Cc1nc(C(N)=S)sc1C(=O)C/C(=N/N)C(=O)Nc1cccc(Cl)c1C"
false

And for "Nc1nc(N)c(-c2cccc(C(F)(F)F)c2)c(Cc2cccc(C(F)(F)F)c2)n1" ?
true

Also need "CCN(CC)c1cc(Nc2c3ccc(Cl)cc3nc3cc(Cl)ccc23)ccc1O" , thanks.
false

Try the compound "O=C1C=CC(=NN=C(c2ccccc2)c2ccccc2)C=C1"
false

Would you mind doing "CCCCCCCCCCN1Cc2ccccc2C1" as well?
true

Field entry: "COC1=Nc2ccccc2S(=O)(=O)C=C1"
true

====

This section presents compounds with their documented growth inhibition values.
assay: NCI Yeast Anticancer Drug Screen. Data for the mlh1 rad18 strain (AID 175); conditions: S. cerevisiae mlh1 rad18 strain growth inhibition; at 5.0 µM (retest, dose inferred, filed as 0.5); stronger effect = higher value
Compounds without any hit were thinned out: in the full panel of roughly 79,000, 15% have a hit.
A number alone suffices; assume %.

>>> result_number("CC(=O)OC1COC(n2nnc(C#N)c2C#N)C(OC(C)=O)C1OC(C)=O (stereo not drawn)")
0
>>> result_number("NC(=S)N1N=C2c3ccccc3CC[C@H]2[C@@H]1c1cccs1")
-17
>>> result_number("Cc1nc(-c2cccc(Cl)c2)oc1-c1ccccc1")
4
>>> result_number("COC(=O)C1=C(NC(=O)Nc2ccc(Cl)cc2)OC(C)(C)C1c1ccc(Cl)cc1 (stereo not drawn)")
85
>>> result_number("N/N=C(/N)SCCCCCCCCCCS/C(N)=N/N")
-8
>>> result_number("CCCCCCCCCCCN1C(=O)c2ccccc2S1(=O)=O")
0
>>> result_number("CCOCCNCc1ccc(Cl)c(Cl)c1")
-144
>>> result_number("CC(C)(C)OC(=O)NCCNC(=O)CN(CC(=O)O)C1CCCCC1N(CC(=O)O)CC(=O)O (stereo not drawn)")
-10

Entry "CCCCCCCCCCCC(=O)OCCOP(=O)(OCC)OCC" : reported growth inhibition = ?
-1

Another compound to check: "Cc1nc(N)sc1N=Nc1ccc(Cl)cc1"
21

Record: COc1ccccc1C1c2cc3c(cc2OC(C)(O)C1C)OCO3 (stereo not drawn)
0
